Each item that follows carries a reported IC50.
# Test system: HeLa
# experiment-notes: Cytotoxicity against human HeLa cells after 48 hrs by MTT assay
# Assay type: functional, cell-based
Provide the measurement as a number trailed by its unit.

INSERT INTO measurements (mol_smiles, recorded_result) VALUES
  ('C=C1CC[C@@H]2C3=C(C[C@]4(C)[C@@H](C)CC[C@@]1(C)[C@@H]24)C(=O)C(OCC)=CC3=O', '7.1 µM');

Task item: Give the reported IC50 for `O=c1[nH]cc(F)c(=O)[nH]1` (system: HeLa).
Reply: 2.3 µM

Where do the numbers come from? From ChEMBL document CHEMBL3108717.
